Biological target: KRas G12D (Homo sapiens, UniProt P01116, G12D)
Sequence (P01116 1-169 isoform P01116-2 G12D): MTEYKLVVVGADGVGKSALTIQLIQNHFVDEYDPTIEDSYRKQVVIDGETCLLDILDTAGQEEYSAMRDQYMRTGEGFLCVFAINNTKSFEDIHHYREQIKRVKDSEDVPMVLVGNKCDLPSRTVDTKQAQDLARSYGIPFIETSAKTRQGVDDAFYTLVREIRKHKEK
Assay: KRas G12D Binding Assay (TR-FRET displacement of labeled tracer)
Conditions: TR-FRET displacement of Cy5 labelled tracer, Biotinylated GDP-loaded KRAS G12D (amino acids 1:169), 60 minute incubation at 22° C.
pIC50 values by entry
As a rule, pIC50 stands for the negative log10 of the concentration, concentration in M.

See these solved cases before continuing.
CNC1(CNc2nc(OCC34CCCN3CCC4)nc3c(F)c(-c4cccc5cccc(F)c45)ncc23)CCC1    5.99
CN(C)C1(CNc2nc(OCC34CCCN3C[C@H](F)C4)nc3c(F)c(-c4cccc5cccc(C6CC6)c45)ncc23)CCC1 (mixture of isomers)    6.46

Query: Request the reported pIC50 associated with "CN(C)C1(CNc2nc(OC[C@@]34CCCN3C[C@H](F)C4)nc3c(F)c(-c4cc(O)cc5ccccc45)ncc23)CCC1"
Response: 7.71

Query: Query Oc1cc(-c2ncc3c(NCC4(O)CNC4)nc(OC[C@@]45CCCN4C[C@H](F)C5)nc3c2F)c2ccccc2c1 [Example 38, bis(2,2,2-trifluoroacetate)] next
Response: 6.41

Query: Query "CN(C)C1(CNc2nc(OC[C@]34CCCN3[C@@H](COC(=O)N3CCCCC3)CC4)nc3c(F)c(-c4cccc5cccc(Cl)c45)ncc23)CCC1" next
Response: 7.05

Query: Query CN(C)C(C)(C)CNc1nc(OC[C@]23CCCN2C[C@@H](F)C3)nc2c(F)c(-c3cc(O)cc4ccccc34)ncc12 [Example 42, bis(2,2,2-trifluoroacetate)] next
Response: 6.68

---

Target: KRas G12D (Homo sapiens, UniProt P01116, G12D)
Assay: KRas G12D Binding Assay (TR-FRET displacement of labeled tracer)
Details: TR-FRET displacement of Cy5 labelled tracer, Biotinylated GDP-loaded KRAS G12D (amino acids 1:169), 60 minute incubation at 22° C.
Counter-ions that a name gives are not always drawn.
experimentalEndpoint: IC50 (µM)
Your answer is read as µM, so omit the unit and give the number.

See these solved cases before continuing.
CN(C)C1(CNc2nc(OC[C@@]34CCCN3C[C@H](F)C4)nc3c(F)c(-c4cccc5cccc(Cl)c45)ncc23)CCC1    0.583
CN(C)C1(CNc2nc(OCC34CCCN3CCC4)nc3c(F)c(-c4cccc(Cl)c4C4CC4)ncc23)CCC1    0.146
CCc1c(F)ccc2cc(O)cc(-c3ncc4c(NCC5(N(C)C)CCC5)nc(OC[C@@]56CCCN5C[C@H](F)C6)nc4c3F)c12    0.0011
Oc1cc(-c2ncc3c(NCC4(N5CCOCC5)CCC4)nc(OC[C@@]45CCCN4C[C@H](F)C5)nc3c2F)c2ccccc2c1    0.958
Cc1cccc2cccc(-c3ncc4c(NCC5(N(C)C)CCC5)nc(OC[C@@]56CCCN5C[C@H](F)C6)nc4c3F)c12 [Example 2, bis(2,2,2-trifluoroacetate)]    0.269

Query: Request the reported IC50 associated with CN1CCC[C@H]1COc1nc(NCC2(N(C)C)CCC2)c2cnc(-c3cc(O)cc4ccccc34)c(F)c2n1 [Example 11, bis(2,2,2-trifluoroacetate)]
Response: 0.098

Query: Query CCc1cccc2cc(O)cc(-c3ncc4c(NCC5(N(C)C)CCC5)nc(OC[C@@]56CCCN5C[C@H](F)C6)nc4c3F)c12 [Example 33, dihydrochloride] next
Response: 0.0009

Query: Query "CN1CCC[C@@H]1COc1nc(NCC2(N(C)C)CCC2)c2cnc(-c3cc(O)cc4ccccc34)c(F)c2n1" next
Response: 0.381

Query: Query "CN(C)C1(CNc2nc(OCC34CCCN3CCC4)nc3c(F)c(-c4cccc5cccc(F)c45)ncc23)CCCC1" next
Response: 0.48

Query: Query "CN(C)C(=O)OC[C@H]1CC[C@@]2(COc3nc(NCC4(N(C)C)CCC4)c4cnc(-c5cccc6cccc(Cl)c56)c(F)c4n3)CCCN12" next
Response: 0.102

Query: Query "CN(C)C1(CNc2nc(OCC34CCCN3CCC4)nc3c(F)c(-c4cccc5cccc(F)c45)ncc23)CCC1" next
Response: 0.306

Query: Query "CC#Cc1cccc2cccc(-c3ncc4c(NCC5(N(C)C)CCC5)nc(OC[C@@]56CCCN5C[C@H](F)C6)nc4c3F)c12" next
Response: 1.88

Query: Query CN(C)C1(CNc2nc(OC[C@@]34CCCN3C[C@H](F)C4)nc3c(F)c(-c4cc(O)cc5ccccc45)ncc23)CCOCC1 [Example 41, bis(2,2,2-trifluoroacetate)] next
Response: 0.684

The reported numbers originate from patent US12655160B2.
